Data origin: ChEMBL document CHEMBL4811297

Assay: Lipophilicity, log D of compound at pH 7.4 in octanol/phosphate buffer measured by shake flask method
Assay type: physicochemical
quantity-measured: logD

Answered cases to consult:
INSERT INTO measurements (compound_structure, measured_value) VALUES
  ('COc1cc(-c2cc(C(=O)O)c3ccccc3n2)ccc1OCC(=O)Nc1ccccc1C', 0.8),
  ('COc1cc(-c2cc(C(=O)O)c3ccccc3n2)ccc1OCC(=O)Nc1cccc(C(F)(F)F)c1', 1.3),
  ('CCCCCCNC(=O)COc1ccc(-c2cc(C(=O)O)c3ccccc3n2)cc1OC', 1);

P. COc1cc(-c2cc(C(=O)O)c3ccccc3n2)ccc1OCC(=O)NC12CC3CC(CC(C3)C1)C2
Q. COc1cc(-c2cc(C(=O)O)c3ccccc3n2)ccc1OCC(=O)NCc1cccs1
R. COc1cc(-c2cc(C(=O)O)c3ccccc3n2)ccc1OCC(=O)Nc1ccccc1Cl
Input line: Order the 3 molecules from highest to lowest logD. Reply with the item labels sorted in the order that was asked for.
Output line: R, P, Q
